Tested on: PC-3 prostate
Experiment: NCI-60 one-dose screen, 48 h
Details: 10 µM unless noted
Procedure: Growth inhibition of the PC-3 human tumor cell line is measured as a screen for anti-cancer activity. Cells are grown in 96 well plates and exposed to the test compound for 48 hours. Compounds are tested at a single concentration, which is 10^-5 M for most compounds. The reported endpoint is percent growth (GI% or GIPRCNT), where numbers from 0 - 100% represent growth inhibition, and numbers from -100% - 0 represent cell death. For example, a value of 40 represents 60% growth inhibition. […]
The panel holds about 83,000 compounds, 20% with a hit somewhere; the sample as a whole holds those more often. Calls of active or inactive are those of the source. How the source made its calls: active means growth percent below 10; inactive means the rest.
Labels: active, inactive

compound: CCOC(=O)Nc1ccc2c3c(cccc13)-c1ccccc1-2
label_class: inactive
--
compound: C[C@]12CCC(=O)C=C1CCC1C2[C@@H](O)C[C@@]2(C)C1CC[C@]2(O)C(=O)COC(=O)CCC(=O)O (stereo not given in full)
label_class: inactive
--
compound: O=C(CSc1nnc(-c2cc(-c3ccccc3)nc3ccccc23)o1)c1ccc(Br)cc1
label_class: inactive
--
compound: CC(C)N(Cc1ccccc1)c1c(Cl)ssc1=O
label_class: inactive
--
compound: CCN(CC)c1ccc(C(=C2C=CC(=[N+](CC)Cc3cccc(S(=O)(=O)O)c3)C=C2)c2ccc(N(CC)Cc3cccc(S(=O)(=O)O)c3)cc2)cc1
label_class: active
--
compound: NS(=O)(=O)c1ccc(-n2ncc3c(NC4CCCCC4)ncnc32)cc1
label_class: inactive
--
compound: CCSc1nc(-c2ccc(F)cc2)c(C#N)c(=O)[nH]1
label_class: inactive
--
compound: CCNCCCn1c2c(c3ccc(F)cc3c1=O)C(=O)c1cc(OC)cnc1-2
label_class: active
--
compound: C=C1CC[C@@H]2[C@](C)(COC(C)=O)[C@H](OC(C)=O)CC[C@@]2(C)[C@@H]1CC(NCc1ccccc1)C1=CCOC1=O (stereo not given in full)
label_class: inactive
--
compound: CCN1CCN(c2nc(NNC(=O)Cc3ccccc3)nc(N3CCN(C(c4ccccc4)c4ccccc4)CC3)n2)CC1
label_class: inactive
--
compound: CCOC(=O)/C(=C/CC/C(C)=C/CC/C(C)=C/CCc1ccoc1)CC(=O)N1CCCCC1
label_class: inactive
--
compound: Cc1cc2c(cc1C)[n+](Cc1ccc3ccccc3c1)cn2Cc1ccc2ccccc2c1
label_class: active
--
compound: N=C1c2nc3n(c2C(=O)c2nc4n(c21)CCCCC4)CCCCC3
label_class: inactive
--
compound: O=C(O)CCNS(=O)(=O)c1ccc(-c2ccccc2)cc1
label_class: inactive
--
compound: COC(=O)[C@H](CCCCNC(=O)OCc1ccccc1)NC(=O)[C@@H](NC(=O)Nc1cc(C(F)(F)F)cc(C(F)(F)F)c1)C(C)C
label_class: active
